# test_system: NRAS WT binding to BRAF RBD (Homo sapiens (Human), UniProt P01111+P62937)
# Sequence (P01111 whole entry, one chain of several): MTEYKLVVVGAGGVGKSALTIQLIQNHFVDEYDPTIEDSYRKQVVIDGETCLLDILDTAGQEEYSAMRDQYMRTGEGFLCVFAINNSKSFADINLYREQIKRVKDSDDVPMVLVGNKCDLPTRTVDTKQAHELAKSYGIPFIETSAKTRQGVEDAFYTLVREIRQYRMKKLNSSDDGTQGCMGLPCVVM
# test_method_notes: Ras-Raf disruption/FRET/MOA assay, NRAS WT
Assign IC50 to each entry below.

# annotated cases, reported IC50 shown
compound	IC50
C=CC(=O)N1CC[C@H](C(=O)N(C)[C@H](C(=O)N[C@H]2Cc3cccc(c3)-c3ccc4c(c3)c(c(-c3cccnc3[C@H](C)OC)n4CC)CC(C)(C)COC(=O)[C@@H]3CCCN(N3)C2=O)[C@H](C)C(F)(F)F)C1 (atropisomer, axis not shown)	1000 to 10000 nM
C=CC(=O)N(C)CCN1CCN(C(=O)N(C)[C@H](C(=O)N[C@H]2CN3CCC=C(C3)c3ccc4c(c3)c(c(-c3cccnc3[C@H](C)OC)n4CC)CC(C)(C)COC(=O)[C@@H]3CCCN(N3)C2=O)C(C)C)C[C@@H]1C	100 to 1000 nM
CCn1c(-c2cccnc2[C@H](C)OC)c2c3cc(ccc31)-c1csc(n1)C[C@H](NC(=O)[C@H](C(C)C)N(C)C(=O)C1CCN(C(=O)/C=C/CN(C)C)C3(CC3)C1)C(=O)N1CCC[C@H](N1)C(=O)OCC(C)(C)C2 (stereo partly shown)	100 to 1000 nM

Here is another compound to look at.
Provide IC50, system NRAS WT binding to BRAF RBD (Homo sapiens (Human), UniProt P01111+P62937), entry `CCn1c(-c2cccnc2[C@H](C)OC)c2c3cc(ccc31)-c1cccc(c1)C[C@H](NC(=O)[C@H](C(C)C)N1CC[C@]3(CCN(C(=O)C#CC(C)(C)N4CCC4)C3)C1=O)C(=O)N1CCC[C@H](N1)C(=O)OCC(C)(C)C2`
1000 to 10000 nM

----------
# test_system: KRAS G12S (Homo sapiens (Human), UniProt P01116+P62937, G12S)
# Sequence (P01116 other isoform, or with tags, fused parts or gaps G12S): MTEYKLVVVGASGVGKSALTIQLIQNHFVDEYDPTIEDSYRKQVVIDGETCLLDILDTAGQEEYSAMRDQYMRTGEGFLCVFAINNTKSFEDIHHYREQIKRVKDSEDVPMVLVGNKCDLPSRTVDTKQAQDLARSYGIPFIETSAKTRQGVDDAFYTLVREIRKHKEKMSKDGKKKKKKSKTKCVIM
# Sequence (P62937 whole entry): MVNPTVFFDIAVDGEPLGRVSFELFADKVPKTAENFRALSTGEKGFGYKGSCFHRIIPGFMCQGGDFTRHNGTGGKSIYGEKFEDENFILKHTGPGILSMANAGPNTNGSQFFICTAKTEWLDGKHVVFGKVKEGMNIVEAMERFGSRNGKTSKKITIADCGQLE
# test_method_notes: Ras-Raf disruption/FRET/MOA assay, KRAS G12S
# Assay type: biochemical
# condition_notes: read-out: KRAS G12S FRET IC50
quantity_measured: IC50

Here are 3 compounds together with their reported answers.
compound	quantity_measured	observed
CCn1c(-c2cnccc2COC)c2c3cc(ccc31)-c1cccc(c1)C[C@H](NC(=O)[C@H](C(C)C)N(C)C(=O)CCN=C=NCc1c(OC)cccc1OC)C(=O)N1CCC[C@H](N1)C(=O)OCC(C)(C)C2 [Example 75]	IC50	> 10 µM
CCn1c(-c2cnccc2COC)c2c3cc(ccc31)-c1cccc(c1)C[C@H](NC(=O)[C@H](C(C)C)N1CC[C@@H](CN=C=NCCOC)C1)C(=O)N1CCC[C@H](N1)C(=O)OCC(C)(C)C2 [Example 80]	IC50	1 to 10 µM
CCn1c(-c2cnccc2COC)c2c3cc(ccc31)-c1cc(O)cc(c1)C[C@H](NC(=O)[C@H](C(C)C)N(C)C(=O)C1CN(C(=O)[C@@H]3CN3)C1)C(=O)N1CCC[C@H](N1)C(=O)OCC(C)(C)C2 [Example 6]	IC50	0.1 to 1 µM

Field: IC50. Fill in for each record below.
1. CCn1c(-c2cnccc2COC)c2c3cc(ccc31)-c1cc(O)cc(c1)C[C@H](NC(=O)[C@@H](CN(C)C(=O)[C@@H]1CN1)C(C)C)C(=O)N1CCC[C@H](N1)C(=O)OCC(C)(C)C2 [Example 60]
2. CCn1c(-c2cnccc2COC)c2c3cc(ccc31)-c1cccc(c1)C[C@H](NC(=O)[C@H](C(C)C)N(C)C(=O)CCN=C=Nc1ccc(N(C)C)cc1)C(=O)N1CCC[C@H](N1)C(=O)OCC(C)(C)C2 [Example 66]

> 10 µM
1 to 10 µM
